Test system: Escherichia coli TOP10;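 also: peptides expressed intracellularly from a pBAD plasmid library in pooled LB shake-flask culture, induced with 0.3% L-arabinose, DNA abundance read by NGS, three biological replicates, DESeq2 with apeglm shrinkage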
MEASUREMENT DESCRIPTION: shrunken log2 fold change of peptide-encoding DNA abundance (4.5 h post-induction vs induction); higher = less antimicrobial activity (less host growth inhibition)
RECORDED CONDITIONS: time post-induction: 4.5 h; library: site-saturation at positions 5, 18, 19, 20
Mark Criterion not met for shrunken log2 fold change values under 0.1, and Criterion met for everything at or above.

>>> print(df.to_string())
             entry_sequence     category_label
 0  RRIRLRPPRLPRPRPRPWRKPRP      Criterion met
 1  RRIRKRPPRLPRPRPRPSQLPRP      Criterion met
 2  RRIRFRPPRLPRPRPRPKYEPRP  Criterion not met
 3  RRIRSRPPRLPRPRPRPDPCPRP  Criterion not met
 4  RRIRVRPPRLPRPRPRPVCRPRP  Criterion not met
 5  RRIRSRPPRLPRPRPRPESIPRP  Criterion not met
 6  RRIRKRPPRLPRPRPRPVGIPRP      Criterion met
 7  RRIRNRPPRLPRPRPRPRGQPRP      Criterion met
 8  RRIRNRPPRLPRPRPRPRQLPRP      Criterion met
 9  RRIRPRPPRLPRPRPRPGGTPRP      Criterion met
10  RRIRKRPPRLPRPRPRPITRPRP      Criterion met
11  RRIRWRPPRLPRPRPRPIVPPRP      Criterion met
12  RRIRIRPPRLPRPRPRPTFGPRP  Criterion not met
13  RRIRVRPPRLPRPRPRPLGYPRP  Criterion not met
14  RRIRNRPPRLPRPRPRPQVSPRP  Criterion not met
15  RRIRQRPPRLPRPRPRPMQEPRP  Criterion not met
16  RRIRPRPPRLPRPRPRPWCTPRP  Criterion not met
17  RRIRRRPPRLPRPRPRPPGFPRP      Criterion met
18  RRIRMRPPRLPRPRPRPELQPRP  Criterion not met
19  RRIRKRPPRLPRPRPRPWRQPRP      Criterion met
20  RRIRFRPPRLPRPRPRPMHRPRP  Criterion not met
21  RRIRDRPPRLPRPRPRPIWHPRP      Criterion met
22  RRIRNRPPRLPRPRPRPHYEPRP  Criterion not met
23  RRIRCRPPRLPRPRPRPGEQPRP      Criterion met
24  RRIRYRPPRLPRPRPRPQSYPRP  Criterion not met
25  RRIRIRPPRLPRPRPRPKWKPRP  Criterion not met
26  RRIRWRPPRLPRPRPRPPNIPRP  Criterion not met
27  RRIRMRPPRLPRPRPRPTCCPRP      Criterion met
28  RRIRQRPPRLPRPRPRPGSSPRP  Criterion not met
29  RRIRWRPPRLPRPRPRPMNWPRP  Criterion not met
30  RRIRCRPPRLPRPRPRPQDEPRP  Criterion not met
31  RRIRCRPPRLPRPRPRPQFLPRP  Criterion not met
32  RRIRDRPPRLPRPRPRPTGPPRP      Criterion met
33  RRIRKRPPRLPRPRPRPWIFPRP      Criterion met
34  RRIRLRPPRLPRPRPRPVHYPRP  Criterion not met
35  RRIRIRPPRLPRPRPRPYFHPRP  Criterion not met
36  RRIRYRPPRLPRPRPRPDNTPRP  Criterion not met
37  RRIRWRPPRLPRPRPRPLVCPRP      Criterion met
38  RRIRTRPPRLPRPRPRPWYGPRP  Criterion not met
